# ASSAY_METHOD_TEXT: folding enthalpy; higher = less favourable; fluorescence melt of hairpins on a sequencing array, two-state fit
# PROTOCOL_CONDITIONS: sodium 0.088 M
Classify as follows. Reported folding enthalpy greater than or equal to -20 kcal/mol: Condition met. Reported folding enthalpy below: Condition not met.

{"SEQUENCE": "GTCTACCCGAAAGGGGAC (((..(((....))))))", "CLASS_NAME": "Condition met"}
{"SEQUENCE": "GGGCACCGAAAGGTCCCC (((.(((....))).)))", "CLASS_NAME": "Condition met"}
{"SEQUENCE": "GGTATTGGAAACAATATC (.(((((....))))).)", "CLASS_NAME": "Condition not met"}
{"SEQUENCE": "GGCTGACGAAAGTCGCC (((.(((....))))))", "CLASS_NAME": "Condition not met"}
{"SEQUENCE": "GAGGTGGGAAACTGCCTC ((((..(....)..))))", "CLASS_NAME": "Condition not met"}
{"SEQUENCE": "GTAGGAGGAAACCCCTAC (((((.(....).)))))", "CLASS_NAME": "Condition not met"}
{"SEQUENCE": "GTAGCGGAAACGCTAC ((((((....))))))", "CLASS_NAME": "Condition not met"}
{"SEQUENCE": "GCACTTGGAAACAGGTGC ((((.((....)).))))", "CLASS_NAME": "Condition not met"}
{"SEQUENCE": "GTGTGTGGAAACGTACAC ((((..(....)..))))", "CLASS_NAME": "Condition not met"}
{"SEQUENCE": "GTGTGAACGAAAGTTCAC (((..(((....))))))", "CLASS_NAME": "Condition met"}
{"SEQUENCE": "GTGGATGGAAACATTCAC (((.(((....))).)))", "CLASS_NAME": "Condition not met"}
{"SEQUENCE": "GCGCGGGGAAACCCACGC (((.(((....))).)))", "CLASS_NAME": "Condition not met"}
{"SEQUENCE": "GAGGAAACGAAAGTTCTC (((..(((....))))))", "CLASS_NAME": "Condition met"}
{"SEQUENCE": "GCTTGGGGAAACCCAGGC ((.((((....)))).))", "CLASS_NAME": "Condition not met"}
{"SEQUENCE": "GATCCGATGCCGGATC ((((((....))))))", "CLASS_NAME": "Condition not met"}
{"SEQUENCE": "GCTAAAACGAAAGTTAGC (((..(((....))))))", "CLASS_NAME": "Condition not met"}
{"SEQUENCE": "GTCGAAGAAATTCGAC ((((((....))))))", "CLASS_NAME": "Condition not met"}
{"SEQUENCE": "GATTATGAAAATAATC ((((((....))))))", "CLASS_NAME": "Condition not met"}
{"SEQUENCE": "GATCCGAAGGCGGATC ((((((....))))))", "CLASS_NAME": "Condition not met"}
{"SEQUENCE": "GATCACGAAAGTGACATC ((((((....)))..)))", "CLASS_NAME": "Condition met"}
{"SEQUENCE": "GCACTCGCGAAAGCGTGC (((..(((....))))))", "CLASS_NAME": "Condition met"}
{"SEQUENCE": "GCGGCTGGAAACAGCCAC (.(((((....))))).)", "CLASS_NAME": "Condition met"}
{"SEQUENCE": "GCCCTACGAAAGTATGGC (((.(((....))).)))", "CLASS_NAME": "Condition not met"}
{"SEQUENCE": "GCTAGCGAAAGCTAAGC ((((((....))).)))", "CLASS_NAME": "Condition not met"}

Measured values drawn from the array DNA melting data of Ke et al. (doi:10.1101/2024.01.08.574731) for this set.
